Reported Kd values are given for each entry in this list.
Assay system: α-synuclein fibrils (human), P37840
Method description: SPR, BIAcore X100; fibrils immobilised on CM5, mAb injected at 0.01-10 nM
Condition set: remark: other sources report otherwise

{"Binder": "Syn-O4 (antibody, IgG1, V domains shown) VH: EVQLVESGGGLVQPKGSLKLSCAASGFTFNTYAMHWVRQAPGKGLEWVARIRSKSSNYATYYADSVKDRFTISRDDSQSMLYLQMNNLKTEDTAMYYCVRPLKWYFDVWGTGTTVTVSS VL: QIVLTQSPAILSASPGEKVTMTCSASSTVNYMHWYQQKSGTSPKIWIYDTSKLASGVPARFSGSGSWTSYSLTISSMEAEDAATYYCQQWNSNPPTFGAGTKLELK", "Kd": "0.138 nM"}
{"Binder": "Syn-O3 (antibody, IgG1, V domains shown) VH: EVQLVESGGGLVQPKGSLKLSCAASGFTFNTYAMHWVRQAPGKGLEWVARIRSKSSNYATYYADSVKDRFTISRDDSQSMLYLQMNNLKTEDTAMYYCVRPLKWYFDVWGTGTTVTVSS VL: QIVLTQSPAILSASPGEKVTMTCSASSTVNYMHWYQQKSGTSPKIWIYDTSKLASGVPARFSGSGSWTSYSLTISSMEAEDAATYYCQQWNSNPPTFGAGTKLELK", "Kd": "0.171 nM"}
{"Binder": "Syn-O2 (antibody, IgG1, V domains shown) VH: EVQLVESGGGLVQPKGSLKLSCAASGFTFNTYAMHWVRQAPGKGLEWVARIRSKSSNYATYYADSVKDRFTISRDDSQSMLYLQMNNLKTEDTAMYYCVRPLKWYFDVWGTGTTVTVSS VL: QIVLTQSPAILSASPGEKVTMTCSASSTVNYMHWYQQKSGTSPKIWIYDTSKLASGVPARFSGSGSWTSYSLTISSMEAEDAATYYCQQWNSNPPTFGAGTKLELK", "Kd": "0.0969 nM"}
{"Binder": "Syn-O1 (antibody, IgG2b, V domains shown) VH: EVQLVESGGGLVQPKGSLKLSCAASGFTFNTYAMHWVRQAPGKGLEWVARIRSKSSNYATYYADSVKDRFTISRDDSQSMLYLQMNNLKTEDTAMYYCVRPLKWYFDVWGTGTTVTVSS VL: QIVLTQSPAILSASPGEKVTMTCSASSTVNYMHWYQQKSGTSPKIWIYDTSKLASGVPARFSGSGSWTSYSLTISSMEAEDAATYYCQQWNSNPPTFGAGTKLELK", "Kd": "0.016 nM"}

Reference for the values: patent US20140241984A1
